Attribution: ChEMBL document CHEMBL2218924

target: Tyrosine-protein kinase receptor TYRO3 (Homo sapiens); settings: at 10 µM
Listed next: entries and their corresponding residual activity.
property-name: residual activity (%)

compound="CSc1nc(-c2ccc(F)cc2)c(-c2ccnc(NC(C)c3ccccc3)c2)[nH]1 (stereo not drawn)" unit=% recorded_value=99
compound=Nc1ncnc2[nH]nc(Nc3ccc(F)cc3)c12 unit=% recorded_value=50
compound=Nc1ncnc2c1c(-c1ccc(Oc3ccccc3)cc1)cn2C1CCCC1 unit=% recorded_value=14
compound=COc1ccc(-c2cnc3c(-c4ccsc4)cnn3c2)cc1 unit=% recorded_value=93
compound=O=C1Nc2ccc(Cl)cc2/C1=C/c1cc(Cl)c(O)c(Cl)c1 unit=% recorded_value=57
compound=Nc1nc(Nc2ccc(S(N)(=O)=O)cc2)nn1C(=O)c1c(F)cccc1F unit=% recorded_value=28
compound=CC(C)c1nn(-c2c(Cl)cccc2Cl)c2nc(Cc3ccc(OCCO)cc3)[nH]c(=O)c12 unit=% recorded_value=104
compound=N#Cc1c(NC(=O)c2cccc3ccccc23)sc2c1CCCC2 unit=% recorded_value=92

###

target: Serine/threonine-protein kinase PLK3 (Homo sapiens) (UniProt Q9H4B4); details: at 10 µM
Sequence (Q9H4B4 whole entry, looked up): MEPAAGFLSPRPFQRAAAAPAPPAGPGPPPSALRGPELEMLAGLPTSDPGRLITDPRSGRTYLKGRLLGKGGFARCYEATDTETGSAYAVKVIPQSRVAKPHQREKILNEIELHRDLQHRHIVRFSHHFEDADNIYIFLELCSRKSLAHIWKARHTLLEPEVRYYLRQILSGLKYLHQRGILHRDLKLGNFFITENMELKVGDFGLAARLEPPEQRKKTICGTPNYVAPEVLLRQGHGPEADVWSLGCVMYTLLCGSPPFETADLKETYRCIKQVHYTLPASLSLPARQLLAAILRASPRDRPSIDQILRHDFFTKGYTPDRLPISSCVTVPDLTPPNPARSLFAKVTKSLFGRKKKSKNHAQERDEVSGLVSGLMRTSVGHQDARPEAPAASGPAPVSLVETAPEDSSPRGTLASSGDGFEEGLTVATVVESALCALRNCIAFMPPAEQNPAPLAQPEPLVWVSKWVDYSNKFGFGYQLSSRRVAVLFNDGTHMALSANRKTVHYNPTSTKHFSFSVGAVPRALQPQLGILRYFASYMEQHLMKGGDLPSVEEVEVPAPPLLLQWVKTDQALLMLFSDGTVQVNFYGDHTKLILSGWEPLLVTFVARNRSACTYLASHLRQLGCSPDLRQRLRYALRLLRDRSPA
Description: Millipore: Percentage of residual kinase activity of PLK3 at 10uM relative to control. Control inhibitor: Wortmannin at 100.0uM. Buffer: 8 mM MOPS pH 7.0, 0.2 mM EDTA
// reported residual activity per item
property-name: residual activity

molecule=Nc1n[nH]c2nc3ccccc3nc12 property_name="residual activity" recorded_value=83%
molecule=CC(C)c1nn(-c2c(Cl)cccc2Cl)c2nc(Cc3ccc(OCCO)cc3)[nH]c(=O)c12 property_name="residual activity" recorded_value=96%
molecule=O=C(c1ccccc1)c1ccc(N2CCOCC2)cc1O property_name="residual activity" recorded_value=88%
molecule="O=C(NC(NC(=S)Nc1ccc(F)c([N+](=O)[O-])c1)C(Cl)(Cl)Cl)C(c1ccccc1)c1ccccc1 (configuration not stated)" property_name="residual activity" recorded_value=98%
molecule=N#C/C(=C\c1ccc(O)c(O)c1)C(=O)NCc1ccccc1 property_name="residual activity" recorded_value=80%
molecule=CCCCc1c(-c2ccc(O)cc2)[nH]c2nccnc12 property_name="residual activity" recorded_value=100%
molecule=Nc1ncnc2c1c(-c1ccc(Oc3ccccc3)cc1)cn2C1CCCC1 property_name="residual activity" recorded_value=91%

###

target: High affinity nerve growth factor receptor (Homo sapiens); details: at 1 µM
# residual activity annotations
property-name: residual activity (%)

molecule=O=C(CCCc1ccc(-c2ccccc2F)cc1)Nc1ccc(O)cc1 property_name="residual activity" recorded_value=102
molecule=O=C1Nc2ccccc2/C1=C\c1c(Cl)[nH]c2ccccc12 property_name="residual activity" recorded_value=85
molecule="O=C(NC(NC(=S)Nc1ccc(F)c([N+](=O)[O-])c1)C(Cl)(Cl)Cl)C(c1ccccc1)c1ccccc1 (centres undefined)" property_name="residual activity" recorded_value=87
molecule=Nc1ncnc2[nH]nc(Nc3ccc(F)cc3)c12 property_name="residual activity" recorded_value=78

###

Measured residual activity accompanies every entry in the list below.
biological target: Serine/threonine-protein kinase 24 (Homo sapiens) (UniProt Q9Y6E0); settings: at 10 µM
Sequence (Q9Y6E0 whole entry, looked up): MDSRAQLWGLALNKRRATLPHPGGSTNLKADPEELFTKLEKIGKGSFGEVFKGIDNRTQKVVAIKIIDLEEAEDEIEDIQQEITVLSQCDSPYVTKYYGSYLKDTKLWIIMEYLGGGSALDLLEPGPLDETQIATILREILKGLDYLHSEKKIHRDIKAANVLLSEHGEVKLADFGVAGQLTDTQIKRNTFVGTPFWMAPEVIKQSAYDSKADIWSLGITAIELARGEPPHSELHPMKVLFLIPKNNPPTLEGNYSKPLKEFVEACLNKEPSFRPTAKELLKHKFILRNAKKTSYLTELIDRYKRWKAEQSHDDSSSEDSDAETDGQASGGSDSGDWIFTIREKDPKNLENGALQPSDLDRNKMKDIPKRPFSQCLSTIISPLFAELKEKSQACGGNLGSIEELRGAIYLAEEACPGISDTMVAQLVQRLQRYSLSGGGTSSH
property-name: residual activity (%)

smiles_notation=NC(=O)c1ccc(-c2nc(-c3ccc4c(c3)OCCO4)c(-c3ccccn3)[nH]2)cc1 property_name="residual activity" recorded_value=82
smiles_notation=O=c1c(-c2ccc(F)cc2)c(-c2ccncc2)[nH]n1-c1ccc(Cl)cc1 property_name="residual activity" recorded_value=79
smiles_notation=Fc1ccc(-c2nc3n(c2-c2ccncc2)CCS3)cc1 property_name="residual activity" recorded_value=89
smiles_notation=Oc1cccc(-c2nc(N3CCOCC3)c3oc4ncccc4c3n2)c1 property_name="residual activity" recorded_value=74
smiles_notation=O=C(Nc1nc2ccccc2n1CCN1CCOCC1)c1cccc([N+](=O)[O-])c1 property_name="residual activity" recorded_value=74
smiles_notation=c1ccc(-c2cnc(Nc3ccc(OCCN4CCCC4)cc3)s2)cc1 property_name="residual activity" recorded_value=80
smiles_notation=CN(C)S(=O)(=O)c1ccc2c(c1)/C(=C/c1cc3c([nH]1)CCCC3)C(=O)N2 property_name="residual activity" recorded_value=30
smiles_notation=CCOC(=O)c1c(C)[nH]c(/C=C2\C(=O)Nc3ccccc32)c1C property_name="residual activity" recorded_value=88
smiles_notation=Cc1cc(C)c(/C=C2\C(=O)Nc3ccccc32)[nH]1 property_name="residual activity" recorded_value=72
smiles_notation=CCCCc1c(-c2ccc(O)cc2)[nH]c2nccnc12 property_name="residual activity" recorded_value=38
smiles_notation=COc1ccc(COc2ccc(Cc3cnc(N)nc3N)cc2OC)cc1 property_name="residual activity" recorded_value=65
